Each item that follows carries a reported pEC50.
# TGT: T1, native mouse MET on living cells (mouse, UniProt P16056 25-1379)
# T1 construct: whole, on cells; also called Mouse cells (MLP29); mouse epithelial cells expressing MET
# MEASUREMENT_PROTOCOL: flow cytometry, MLP29 cells
pEC50: −log10 of the molar value.

{"BINDER": "74C8 chimeric llama-human IgG1 mAb (antibody, V domains shown, llama VH on human IgG1 CH1-CH2-CH3, llama VL on human lambda CL) VH: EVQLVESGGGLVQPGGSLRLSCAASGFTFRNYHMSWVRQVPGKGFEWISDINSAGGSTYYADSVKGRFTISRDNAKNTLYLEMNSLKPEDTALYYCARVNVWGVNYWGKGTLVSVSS VL: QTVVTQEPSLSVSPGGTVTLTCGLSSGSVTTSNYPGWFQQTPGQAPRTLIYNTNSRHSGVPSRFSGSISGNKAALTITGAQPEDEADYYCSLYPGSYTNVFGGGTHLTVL", "pEC50": 9.68}
{"BINDER": "71C3 chimeric llama-human IgG1 mAb (antibody, V domains shown, llama VH on human IgG1 CH1-CH2-CH3, llama VL on human lambda CL) VH: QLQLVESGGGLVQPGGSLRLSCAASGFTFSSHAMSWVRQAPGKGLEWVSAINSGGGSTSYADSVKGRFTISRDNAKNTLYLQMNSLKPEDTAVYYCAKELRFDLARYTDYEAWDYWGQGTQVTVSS VL: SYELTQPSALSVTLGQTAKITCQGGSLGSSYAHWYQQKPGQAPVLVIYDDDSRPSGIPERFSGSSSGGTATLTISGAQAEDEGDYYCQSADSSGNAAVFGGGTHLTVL", "pEC50": 9.23}
